Hello, the source for this data is ChEMBL document CHEMBL4190394, in case you need it.

# subject of test: UniProt P35968
# Sequence (P35968 whole entry): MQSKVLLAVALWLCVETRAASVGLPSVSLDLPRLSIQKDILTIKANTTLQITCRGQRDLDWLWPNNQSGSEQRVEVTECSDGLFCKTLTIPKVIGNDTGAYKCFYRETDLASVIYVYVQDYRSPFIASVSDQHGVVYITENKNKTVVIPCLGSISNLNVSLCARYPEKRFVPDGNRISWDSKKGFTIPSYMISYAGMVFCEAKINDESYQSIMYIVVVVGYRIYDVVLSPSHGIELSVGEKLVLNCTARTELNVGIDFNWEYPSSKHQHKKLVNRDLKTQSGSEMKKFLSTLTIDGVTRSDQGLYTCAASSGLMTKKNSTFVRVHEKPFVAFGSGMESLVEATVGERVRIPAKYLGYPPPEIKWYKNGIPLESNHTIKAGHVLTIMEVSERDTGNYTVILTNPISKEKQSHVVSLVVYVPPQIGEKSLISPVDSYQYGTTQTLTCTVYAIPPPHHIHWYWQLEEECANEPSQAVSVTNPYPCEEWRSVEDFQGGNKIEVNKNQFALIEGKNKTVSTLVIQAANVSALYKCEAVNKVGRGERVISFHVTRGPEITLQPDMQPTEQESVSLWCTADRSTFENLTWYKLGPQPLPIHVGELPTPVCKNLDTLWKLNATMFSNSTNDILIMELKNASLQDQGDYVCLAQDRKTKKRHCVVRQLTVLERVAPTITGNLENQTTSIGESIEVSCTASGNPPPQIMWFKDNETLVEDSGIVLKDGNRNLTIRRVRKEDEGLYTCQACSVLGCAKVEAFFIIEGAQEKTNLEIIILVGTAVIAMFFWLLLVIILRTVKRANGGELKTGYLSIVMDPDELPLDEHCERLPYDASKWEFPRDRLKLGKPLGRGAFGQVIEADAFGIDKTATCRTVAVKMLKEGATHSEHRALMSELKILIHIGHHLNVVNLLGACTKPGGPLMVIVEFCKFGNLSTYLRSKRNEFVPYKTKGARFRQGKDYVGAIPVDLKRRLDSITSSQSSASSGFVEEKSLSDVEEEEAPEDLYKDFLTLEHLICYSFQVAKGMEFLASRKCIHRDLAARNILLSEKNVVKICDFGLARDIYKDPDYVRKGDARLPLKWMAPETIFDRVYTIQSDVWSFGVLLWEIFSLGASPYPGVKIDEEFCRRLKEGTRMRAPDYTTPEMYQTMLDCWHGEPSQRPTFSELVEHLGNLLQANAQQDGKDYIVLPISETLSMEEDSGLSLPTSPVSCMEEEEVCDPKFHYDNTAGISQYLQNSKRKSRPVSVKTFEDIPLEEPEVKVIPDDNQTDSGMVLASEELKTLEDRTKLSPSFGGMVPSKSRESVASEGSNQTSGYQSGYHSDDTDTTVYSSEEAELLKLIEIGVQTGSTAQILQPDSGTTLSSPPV
# procedure summary: Inhibition of VEGFR-2 (unknown origin) at 0.2 uM after 40 mins by kinase-Glo assay relative to control
quantity measured: inhibition (%)
Number only, in %; omit the unit.

Name the recorded inhibition for Cc1ccc(Nc2nccc(N(C)c3ccc4c(C)n(C)nc4c3)n2)cc1S(N)(=O)=O [PAZOPANIB] . 95

Suppose we examine the compound Cc1c2ccc(N(C)c3ccnc(Nc4ccc(C(=O)NCCCCCCC(=O)Nc5ccccc5N)cc4)n3)cc2nn1C ; what inhibition value has been reported? 93

Which inhibition value is on record for Cc1c2ccc(N(C)c3ccnc(Nc4ccc(C(=O)NCC(=O)Nc5ccccc5N)cc4)n3)cc2nn1C ? 98

Would you kindly share the measured inhibition for Cc1c2ccc(N(C)c3ccnc(Nc4cccc(C(=O)NCCCCCC(=O)NO)c4)n3)cc2nn1C ? 90

// query inhibition value for entry Cc1ccc(Nc2nccc(N(C)c3ccc4c(C)n(C)nc4c3)n2)cc1C(=O)NO 74

What does the record list as inhibition for Cc1c2ccc(N(C)c3ccnc(Nc4ccc(C(=O)NCCCCCC(=O)NO)cc4)n3)cc2nn1C ? 98

Endpoint output: inhibition of Cc1c2ccc(N(C)c3ccnc(Nc4ccc(/C=C/C(=O)NO)cc4)n3)cc2nn1C . Value? 95

# query: inhibition of entry Cc1ccc(Nc2nccc(N(C)c3ccc4c(C)n(C)nc4c3)n2)cc1C(=O)NCCCCCC(=O)NO 87

Please report the recorded inhibition for Cc1c2ccc(N(C)c3ccnc(Nc4ccc(C(=O)NCCCCCCCC(=O)Nc5ccccc5N)cc4)n3)cc2nn1C . 92

----------
# procedure summary: Apparent volume of distribution in Sprague-Dawley rat at 2 mg/kg, iv by LC-MS/MS analysis
# Assay type: ADME, organism-based
# condition description: in vivo, read-out: Vz
quantity measured: Vd (L/kg)
State just the number; it will be interpreted in L/kg.

What value of measured Vd is listed for Cc1c2ccc(N(C)c3ccnc(Nc4ccc(C(=O)Nc5ccccc5N)cc4)n3)cc2nn1C ? 2.06

----------
# System: HUVEC
# procedure summary: Cytotoxicity activity against HUVEC after 72 hrs by MTT assay
# Type: cell-based
# condition description: Homo sapiens
quantity measured: pIC50
pIC50 field: float, defined as -log10 of concentration (mol/L).

[
  {
    "compound structure string": "Cc1c2ccc(N(C)c3ccnc(Nc4ccc(C(=O)Nc5ccccc5N)cc4)n3)cc2nn1C",
    "subject of test": "HUVEC",
    "pIC50": 4.80
  }
]

Now for the compound whose pIC50 we want.
Please state recorded pIC50 (tested on HUVEC) of Cc1c2ccc(N(C)c3ccnc(Nc4ccc(C(=O)NCCCCCCC(=O)NO)cc4)n3)cc2nn1C 4.68

----------
Measured pIC50 of individual entries
# Tested on: AGS
# procedure summary: Antiproliferative activity against human AGS cells after 72 hrs by MTT assay
# Format: functional, cell-based
pIC50: −log10 of the molar value.

For orientation, consider the following solved cases.
[
  {
    "compound structure string": "Nc1ccccc1NC(=O)c1ccc(CNC(=O)OCc2cccnc2)cc1",
    "subject of test": "AGS",
    "pIC50": 6.47
  },
  {
    "compound structure string": "Cc1c2ccc(N(C)c3ccnc(Nc4ccc(C(=O)Nc5ccccc5N)cc4)n3)cc2nn1C",
    "subject of test": "AGS",
    "pIC50": "< 5.30"
  },
  {
    "compound structure string": "Cc1ccc(Nc2nccc(N(C)c3ccc4c(C)n(C)nc4c3)n2)cc1S(N)(=O)=O",
    "subject of test": "AGS",
    "pIC50": "< 5.30"
  }
]

Fill in the recorded pIC50 for this compound, with AGS as test system: Cc1c2ccc(N(C)c3ccnc(Nc4ccc(C(=O)NCCCCCCC(=O)NO)cc4)n3)cc2nn1C 5.35

Query for AGS: what pIC50 does the record show for Cc1c2ccc(N(C)c3ccnc(Nc4ccc(C(=O)NCCCCCCCC(=O)Nc5ccccc5N)cc4)n3)cc2nn1C ? < 5.30

What measured pIC50 is associated with Cc1c2ccc(N(C)c3ccnc(Nc4ccc(/C=C/C(=O)NO)cc4)n3)cc2nn1C on AGS? < 5.30
